Origin of values: PubChem BioAssay (NCI)

Test system: IGROV1 ovarian
Assay: NCI tumour cell line growth inhibition, 48 h
Provide the recorded TGI for the entries that follow.
Answers are plain numbers, in µM.

So for CC(C)CCCC(C)[C@H]1CCC(C2C[C@@H](O)[C@@H]3CC(O)[C@@H](O)C[C@]3(CO)C2=O)[C@]1(C)CCO (stereo not given in full) , the logged TGI turned out to be 42.4

Continue with the compound presented below.
According to the records, this compound "Clc1ccc2c(c1)N(CCCN1CCCC13CCCCC3)c1ccccc1S2" displays TGI of 30.3

###

System: DLD-1 colon
Assay: NCI tumour cell line growth inhibition, 48 h
Observed property: TGI

Consider the reported TGI for these compounds:
Record "CC(C)(C)C#COC(=O)c1ccccc1" , field TGI: > 100 µM

Query COc1ccccc1NC(=O)C(=O)C(C(=O)c1ccccc1F)C1OC(=O)c2ccccc21 (stereo unspecified) yields TGI of > 100 µM

Entry "Cc1cc2c(c(C(=O)O)c1C)-c1cccc(Cl)c1C2=O" — recorded TGI = > 100 µM

Please fill in: TGI reported for Cc1cc(Cl)ccc1NC(=O)CCCC(=O)C1C/C(=N/O)CC/C1=N\O (stereo unspecified) = > 100 µM

TGI for O=C1NC(O)n2c(=O)[nH]c(=O)n21 (stereo unspecified) is > 100 µM

Please look at the items below and tell me TGI for each one, in order.
1. N/N=C(/Cc1ccccc1)NNO
2. C[C@@H]1C[C@@H]([C@H](O)CC2CC(=O)NC(=O)C2)C(=O)[C@@H](C)C1
3. N#C/C(=C\c1ccc2[nH]ccc2c1)C(=O)NCCCCNC(=O)/C(C#N)=C/c1ccc2[nH]ccc2c1
4. CC(=O)Nc1ccc(C2CC(c3ccc([N+](=O)[O-])cc3)=Nc3ccccc3S2)cc1 (stereo unspecified)
5. O=c1[nH]ccc(CNC23CC4CC(CC(C4)C2)C3)c1O
6. CCOc1ccc(NC(=O)/C(CC(=O)c2c[n+](=O)c3ccccc3n2[O-])=N\OCCCc2ccccc2)cc1

1. > 100 µM
2. 1.98 µM
3. > 100 µM
4. 32.4 µM
5. > 100 µM
6. > 100 µM

###

Test system: SN12C renal
Experiment: NCI tumour cell line growth inhibition, 48 h
Observed property: TGI

Check out these entries, answers already filled in.
Entry C=C1C(=O)O[C@@H]2/C=C(/C)[C@@H](OC(C)=O)C/C=C(\C)C(O)[C@@H](OC(=O)/C(C)=C\C)C12 (some centres undefined) — recorded TGI = 43.1 µM

# TGI of "C[C@]12CC[C@H]3[C@@H](CC=C4C[C@@H](N5CCCC5)CC[C@@]43C)[C@@H]1C[C@H](N1CCCCC1)[C@@H]2O" = > 100 µM

Hey, can you go through the list below and give me TGI for every item?
1. Oc1ccc(Cl)cc1C=Nc1cnc2ccccc2c1
2. CCOc1c(Br)cc(Br)cc1C=C(C#N)C#N
3. N#Cc1c(-c2ccc([N+](=O)[O-])cc2)c(C#N)c(=O)n(NS(=O)(=O)c2ccccc2)c1S
4. O=C1NC(O)n2c(=O)[nH]c(=O)n21 (centres undefined)
5. Oc1ccc(C(O)C2CCCCN2)cc1O (centres undefined)
6. COc1ccc(-n2c(=S)sc3c(Cl)nc(C)nc32)c(OC)c1
7. CCOP(=O)(/C=C/n1cc(C)c(=O)[nH]c1=O)OCC

["> 100 µM", "> 10 µM", "34.9 µM", "> 100 µM", "> 100 µM", "9.14 µM", "> 100 µM"]
